# experimental system: Fuc(a1-2)Gal(b1-4)GlcNAc(b1-6)GalNAc
# protocol summary: glycan array binding signal (z-score within array); higher = stronger binding
# measurement setup: glycan notation: IUPAC condensed, linker removed
About 410 targets per protein were measured; listed, in parts, are those with the strongest signals and a random draw of the rest.
Reported glycan array binding signal (z-score) values for the following binders.

Tp0751, 83732 (protein) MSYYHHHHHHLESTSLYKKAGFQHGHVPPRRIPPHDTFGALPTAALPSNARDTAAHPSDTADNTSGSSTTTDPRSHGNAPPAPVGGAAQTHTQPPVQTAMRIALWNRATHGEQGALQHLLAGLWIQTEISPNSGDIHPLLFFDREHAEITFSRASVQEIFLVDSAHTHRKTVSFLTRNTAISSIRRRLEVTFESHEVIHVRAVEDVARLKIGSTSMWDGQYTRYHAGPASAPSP : -0.071
Pwp5 ND (Candida glabrata) (protein) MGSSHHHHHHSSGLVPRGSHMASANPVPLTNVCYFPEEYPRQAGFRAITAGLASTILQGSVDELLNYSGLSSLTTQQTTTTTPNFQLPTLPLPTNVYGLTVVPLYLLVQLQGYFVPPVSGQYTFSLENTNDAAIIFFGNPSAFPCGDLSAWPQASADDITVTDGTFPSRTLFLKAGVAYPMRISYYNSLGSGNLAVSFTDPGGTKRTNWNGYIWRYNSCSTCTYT : 3.91
Mg3lysM (Mycosphaerella graminicola) (protein) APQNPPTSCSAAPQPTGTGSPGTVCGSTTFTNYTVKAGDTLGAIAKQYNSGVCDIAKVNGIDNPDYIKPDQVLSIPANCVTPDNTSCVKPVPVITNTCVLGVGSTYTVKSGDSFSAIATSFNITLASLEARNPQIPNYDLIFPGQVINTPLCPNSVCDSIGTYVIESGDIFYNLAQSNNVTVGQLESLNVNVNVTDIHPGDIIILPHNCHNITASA : -0.086
AFL5 (Aspergillus fumigatus), Q4WB00 (protein) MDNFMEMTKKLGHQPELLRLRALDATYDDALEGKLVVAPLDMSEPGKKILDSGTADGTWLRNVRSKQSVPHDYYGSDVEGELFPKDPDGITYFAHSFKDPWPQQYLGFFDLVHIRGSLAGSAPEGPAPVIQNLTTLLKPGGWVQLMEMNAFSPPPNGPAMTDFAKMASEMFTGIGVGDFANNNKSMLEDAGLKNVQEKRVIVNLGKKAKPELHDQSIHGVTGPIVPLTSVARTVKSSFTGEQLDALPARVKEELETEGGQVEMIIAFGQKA : -0.782
Epa8 (Candida glabrata) (protein) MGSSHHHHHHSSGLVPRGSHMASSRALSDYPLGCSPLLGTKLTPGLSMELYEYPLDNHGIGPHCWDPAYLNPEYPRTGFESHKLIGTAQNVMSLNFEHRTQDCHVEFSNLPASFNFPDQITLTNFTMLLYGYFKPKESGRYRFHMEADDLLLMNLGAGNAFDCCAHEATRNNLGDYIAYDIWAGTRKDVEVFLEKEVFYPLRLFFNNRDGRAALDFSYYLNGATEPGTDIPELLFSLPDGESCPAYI : 0.724

### Prompt Param item = PA-IL (Pseudomonas aeruginosa), Q05097 (protein) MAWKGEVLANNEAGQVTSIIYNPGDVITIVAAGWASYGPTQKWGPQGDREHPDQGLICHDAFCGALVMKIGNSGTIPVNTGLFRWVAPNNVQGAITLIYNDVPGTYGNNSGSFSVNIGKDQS ; retrieve measured glycan array binding signal (z-score).
### Response -0.201

### Prompt Ok, now Clone646PsrP (Streptococcus pneumoniae) (protein) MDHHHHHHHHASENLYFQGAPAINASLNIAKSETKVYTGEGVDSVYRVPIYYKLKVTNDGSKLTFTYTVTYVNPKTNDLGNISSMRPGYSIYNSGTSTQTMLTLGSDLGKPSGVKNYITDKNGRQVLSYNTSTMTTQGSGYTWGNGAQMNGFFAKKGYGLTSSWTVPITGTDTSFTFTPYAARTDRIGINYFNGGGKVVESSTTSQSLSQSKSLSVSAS
### Response 2.58

Measured values drawn from the supplement of paper PMC8728848 for this set.
